# System: HCM-SANG-0291-C15 (oesophageal cancer organoid)
# assayMethodText: activity (1 - area under the dose-response curve within the screened range) (fraction); higher = more sensitive
# testConditions: ECM percentage in culture prior to screening 80 %; treatment time: 72 h
Collected activity values appear next to each entry.

activity recorded for this molecule, "CCc1cncnc1N1CCN(Cc2nc3ccc(C(F)(F)F)cc3[nH]2)CC1" , is 0.0744

activity recorded for this molecule, "CC(=O)c1c(C)c2cnc(Nc3ccc(N4CCNCC4)cn3)nc2n(C2CCCC2)c1=O" , is 0.0409

// recorded activity for COc1ccc(C2=N[C@@H](c3ccc(Cl)cc3)[C@@H](c3ccc(Cl)cc3)N2C(=O)N2CCNC(=O)C2)c(OC(C)C)c1 [Nutlin-3a (-)] : 0.0359

GET /value?item= "Nc1nc2[nH]cc(CCc3ccc(C(=O)N[C@@H](CCC(=O)O)C(=O)O)cc3)c2c(=O)[nH]1" &field=activity returns 0.0434

// recorded activity for "CS(=O)(=O)N1CCN(Cc2cc3nc(-c4cccc5[nH]ncc45)nc(N4CCOCC4)c3s2)CC1" : 0.0514

* * *

# System: HCM-SANG-0291-C15
# assayMethodText: activity (1 - area under the dose-response curve within the screened range) (fraction); higher = more sensitive
# testConditions: ECM percentage in culture prior to screening 80 %; treatment time: 72 h
Classification field: enter 1.0 for activity values not below 0.2, 0.0 for values below it.

Some entries whose results are on file:
Cn1ncnc1[C@H]1c2n[nH]c(=O)c3cc(F)cc(c23)N[C@@H]1c1ccc(F)cc1    1.0
COc1cc(CCc2cc(NC(=O)c3ccc(N4CC(C)NC(C)C4)cc3)n[nH]2)cc(OC)c1 (configuration not stated)    0.0
CS(=O)(=O)CCNCc1ccc(-c2ccc3ncnc(Nc4ccc(OCc5cccc(F)c5)c(Cl)c4)c3c2)o1    0.0
c1cn2cc(-c3ccc4cn[nH]c4c3)nc(Nc3ccc(N4CCOCC4)cc3)c2n1    0.0
CCc1c2c(nc3ccc(OC(=O)N4CCC(N5CCCCC5)CC4)cc13)-c1cc3c(c(=O)n1C2)COC(=O)[C@]3(O)CC    0.0

Q) Evaluate "COc1cc2nccc(Oc3ccc(NC(=O)Nc4cc(C)on4)c(Cl)c3)c2cc1OC" : activity at minimum 0.2?
A) 0.0

* * *

# Tested on: HCM-SANG-0291-C15
# assayMethodText: activity (1 - area under the dose-response curve within the screened range) (fraction); higher = more sensitive
# testConditions: ECM percentage in culture prior to screening 80 %; treatment time: 72 h
Catalogue of activity readings, one per entry.
Write the number on its own, no unit after it.

Solved cases (5 shown):
Cc1cc([C@@H](C)Nc2ccccc2C(=O)O)c2nc(N3CCOCC3)cc(=O)n2c1 [AZD6482]    0.0269
Cc1cn(-c2cc(NC(=O)c3ccc(C)c(Nc4nccc(-c5cccnc5)n4)c3)cc(C(F)(F)F)c2)cn1 [Nilotinib]    0.0726
NC1(c2ccc(-c3nc4ccn5c(=O)[nH]nc5c4cc3-c3ccccc3)cc2)CCC1 [MK-2206]    0.0594
Cn1nnc2c(C(N)=O)ncn2c1=O [Temozolomide]    0.0234
O=C(O)C(=O)O.[NH-][C@@H]1CCCC[C@H]1[NH-].[Pt+2] [Oxaliplatin]    0.0459

# activity of N#CC[C@H](C1CCCC1)n1cc(-c2ncnc3[nH]ccc23)cn1 [Ruxolitinib] = 0.0196

Looking up CNC(=O)CN1CCC(Oc2cc3c(Nc4cccc(Cl)c4F)ncnc3cc2OC)CC1 [Sapitinib] , I found its activity recorded as 0.159

Lab book: activity of Cc1nc(-c2cn3c(n2)-c2ccc(-c4cnn(C(C)(C)C(N)=O)c4)cc2OCC3)n(C(C)C)n1 [Taselisib] noted as 0.0601

The measured activity associated with O=c1[nH]cc(F)c(=O)[nH]1 [5-Fluorouracil] reads 0.063

Measured activity of Cc1nc(NC(=O)N2CCC[C@H]2C(N)=O)sc1-c1ccnc(C(C)(C)C(F)(F)F)c1 [Alpelisib] : 0.0261

In plain terms, CC[C@@]1(O)C(=O)OCc2c1cc1n(c2=O)Cc2cc3ccccc3nc2-1 [Camptothecin] has a documented activity of 0.258

Short answer for Cc1cc(-c2ncc(CC(=O)Nc3ccc(-c4cnccn4)cn3)cc2C)ccn1 [LGK974] : activity was 0.0251

// activity lookup, compound = COCC1(CO)C(=O)C2CCN1CC2 (centres undefined) [PRIMA-1MET] , result: 0.0328

Entry "O=c1cc(-c2cccc3c2Sc2ccccc2S3)oc(N2CCOCC2)c1" ; activity = 0.0493

* * *

Entries annotated with measured activity
# System: HCM-SANG-0266-C20 (colorectal cancer organoid)
# assayMethodText: activity (1 - area under the dose-response curve within the screened range) (fraction); higher = more sensitive
# testConditions: ECM percentage in culture prior to screening 5 %; treatment time: 72 h
# respond with the number and nothing more

Illustrative cases are given below, each with its answer.
Cn1c(=O)n(-c2ccc(C(C)(C)C#N)cc2)c2c3cc(-c4cnc5ccccc5c4)ccc3ncc21    0.254
CC(=O)O[C@@]12CO[C@@H]1C[C@H](O)[C@@]1(C)C(=O)[C@H](O)C3=C(C)[C@@H](OC(=O)[C@H](O)[C@@H](NC(=O)OC(C)(C)C)c4ccccc4)C[C@@](O)([C@@H](OC(=O)c4ccccc4)[C@H]21)C3(C)C    0.237
CC(=O)c1c(C)c2cnc(Nc3ccc(N4CCNCC4)cn3)nc2n(C2CCCC2)c1=O    0.0791
CC(C)C[C@H](NC(=O)[C@H](Cc1ccccc1)NC(=O)c1cnccn1)B(O)O    0.201
O=c1cc(-c2cccc3c2Sc2ccccc2S3)oc(N2CCOCC2)c1    0.0362

Entry "C[C@@H](Oc1cc(-c2cnn(C3CCNCC3)c2)cnc1N)c1c(Cl)ccc(F)c1Cl" , activity reported as 0.144

Entry "Cc1cn(-c2cc(NC(=O)c3ccc(C)c(Nc4nccc(-c5cccnc5)n4)c3)cc(C(F)(F)F)c2)cn1" , activity reported as 0.0558

Measured activity, "O=c1cc(N2CCOCC2)oc2c(-c3cccc4c3sc3ccccc34)cccc12" : 0.104

Record summary for "CN(C)C/C=C/C(=O)Nc1cc2c(Nc3ccc(F)c(Cl)c3)ncnc2cc1O[C@H]1CCOC1" : reported activity = 0.308

The reported value for "CCN(CC)CCCCNc1ncc2cc(-c3cc(OC)cc(OC)c3)c(NC(=O)NC(C)(C)C)nc2n1" in terms of activity is 0.0628

Record summary for "Cc1nc(NC(=O)N2CCC[C@H]2C(N)=O)sc1-c1ccnc(C(C)(C)C(F)(F)F)c1" : reported activity = 0.13

So, "Cn1ncnc1[C@H]1c2n[nH]c(=O)c3cc(F)cc(c23)N[C@@H]1c1ccc(F)cc1" ? Its activity was 0.0908

Sample "CN(C)CCCOc1ccc(-c2ccc3ncc4c(c3c2)n(C2CCOCC2)c(=O)n4C)cn1" ; activity observed: 0.0443

* * *

# Tested on: HCM-SANG-0266-C20
# assayMethodText: activity (1 - area under the dose-response curve within the screened range) (fraction); higher = more sensitive
# testConditions: ECM percentage in culture prior to screening 5 %; treatment time: 72 h
Entries and their measured activity follow.
Enter the number alone.

Examples with answers:
O=C1NC(=NCc2cccs2)S/C1=C\c1ccc2ncccc2c1    0.123
O=C(O)C(=O)O.[NH-][C@@H]1CCCC[C@H]1[NH-].[Pt+2]    0.0673
COc1cc(CCc2cc(NC(=O)c3ccc(N4CC(C)NC(C)C4)cc3)n[nH]2)cc(OC)c1 (stereo unspecified)    0.0268
Cc1cccc(-c2[nH]c(C(C)(C)C)nc2-c2ccc3c(c2)OCO3)n1    0.0398
Cc1cc([C@@H](C)Nc2ccccc2C(=O)O)c2nc(N3CCOCC3)cc(=O)n2c1    0.042
O=C(O)C1(C(=O)O)CCC1.[NH2-].[NH2-].[Pt+2]    0.0268

Reported activity ( "Cc1cc(Nc2cc(N3CCN(C)CC3)nc(Sc3ccc(NC(=O)C4CC4)cc3)n2)n[nH]1" ) = 0.222

Value of activity reported for the compound "CCC1=C[C@@H]2CN(C1)Cc1c([nH]c3ccccc13)[C@@](C(=O)OC)(c1cc3c(cc1OC)N(C)[C@H]1[C@@](O)(C(=O)OC)[C@H](OC(C)=O)[C@]4(CC)C=CCN5CC[C@]31[C@@H]54)C2" is 0.153

Sure, the documented activity for "CCc1cncnc1N1CCN(Cc2nc3ccc(C(F)(F)F)cc3[nH]2)CC1" is 0.206

Memo: "CCNC(=O)C[C@@H]1N=C(c2ccc(Cl)cc2)c2cc(OC)ccc2-n2c(C)nnc21" , reported activity: 0.121

Recorded activity (compound "CC/C(=C(\c1ccccc1)c1ccc(OCCN(C)C)cc1)c1ccccc1" ): 0.0883

For this compound ( "CC(=O)Nc1cccc(-n2c(=O)n(C3CC3)c(=O)c3c(Nc4ccc(I)cc4F)n(C)c(=O)c(C)c32)c1" ), measured activity is 0.207

Recorded activity (compound "CNC(=O)c1ccccc1Sc1ccc2c(/C=C/c3ccccn3)n[nH]c2c1" ): 0.147

In plain terms, "CNC(=O)c1cc(Oc2ccc(NC(=O)Nc3ccc(Cl)c(C(F)(F)F)c3)cc2)ccn1" has a documented activity of 0.122

In plain terms, "Nc1ccn([C@@H]2O[C@H](CO)[C@@H](O)C2(F)F)c(=O)n1" has a documented activity of 0.624

So for "Cn1ncc(Cl)c1-c1cc(C(=O)N[C@H](CN)Cc2ccc(F)c(F)c2)oc1Cl" , the logged activity turned out to be 0.218
